experiment: yeast AGP1-GFP fluorescence change, single-dose – cell-based, flow cytometry, S. cerevisiae, cherry picks, confirmation (AID 2273);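 note: median GFP channel fluorescence over the whole cell population gate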; conditions: S. cerevisiae AGP1-GFP strain, 3 h, at 10 µM
Measured Attribute: GFP response, % of DMSO (%)
Answers are plain numbers, in %.

// solved cases for GFP response, % of DMSO follow
CC(C)CC(=O)Nc1ccc2oc(-c3ccncc3)nc2c1 ... 95.9
O=[N+]([O-])c1cccc2cn[nH]c12 ... 105
c1cnc2c(c1)ccc1cccnc12 ... 102
COc1ccc(C2=CC(=O)C=CC2=O)cc1 ... 100
CCCS(=O)(=O)c1nnnn1-c1cccc(OC)c1 ... 106
COCCN1C(=O)/C(=C/c2ccc(N3CCCC3)cc2C)SC1=S ... 101
COc1ccc(-c2noc(-c3ccccc3-c3ccccc3)n2)cc1 ... 101
CN1CCN2c3ccccc3Cc3ccccc3C2C1 (configuration not stated) ... 97.6

Batch lookup, GFP response, % of DMSO per entry.
1. CCCCCCCC(=O)OCC(=O)[C@@]1(O)CC[C@H]2[C@@H]3CCC4=CC(=O)CC[C@]4(C)[C@H]3[C@@H](O)C[C@@]21C
2. CC(C)(C)c1ccc(C(=O)CC(Sc2ccc(Cl)cc2)C(=O)O)cc1 (configuration not stated)
3. O=C1c2ccccc2-c2onc3ccc(Oc4ccccc4)c1c23
4. Cc1cc(C)c(C(=O)Cn2cnc3cc([N+](=O)[O-])ccc3c2=O)cc1C

1. 101
2. 98.4
3. 84.3
4. 102
